Target: T1, ZFP SBS#377 (synthetic)
T1 chain: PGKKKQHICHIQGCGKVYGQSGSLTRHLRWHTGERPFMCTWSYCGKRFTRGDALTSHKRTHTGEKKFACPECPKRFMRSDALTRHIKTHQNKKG
Test: EMSA
Settings: tags: MBP fusion
result type: pKd
In textbook form, pKd equals minus log to base ten of the concentration in mol/L.

For reference, reported pKd for GTGTTGGCAG (dsDNA) DNA 1: GTGTTGGCAG DNA 2: CTGCCAACAC stands at 7.05

Recorded values, source patent US20030068675.
